Where do these numbers come from? They come from patent US20250186627A1.

Test system: NRG-mice bearing LNCaP tumors
EXPERIMENTAL DETAILS: Biodistribution (and PET/SPECT imaging) in NRG-mice bearing LNCaP tumors
Format: in vivo
EXPERIMENTAL PARAMETERS: 24 h p.i., Avg
*1 amine or outer side, *2 acyl side, *3 side chain or, on linkers, in order; H or OH if unused. Where a SMILES comes first, the peptide text is derived from it. [ ]: non-standard residue; d: D form. The star is where a group is joined. ξ: configuration not given here. ξLys(Nα-CO-ξAad) = O=C(O)CCCC(NC(=O)NC(CCCCN*)C(=O)O)C(=O)O; Butanoyl(4-(4-NO2Ph)) = O=C(CCCc1ccc([N+](=O)[O-])cc1)*; DOTA = O=C(O)CN1CCN(CC(=O)O)CCN(CC(=O)*)CCN(CC(=O)O)CC1; Butanoyl(4-(4-MeO-phenyl)) = COc1ccc(CCCC(=O)*)cc1; ξAla(9-anthryl) = NC(Cc1c2ccccc2cc2ccccc12)C(=O)O; X2 = O=C(NC(CCCCN*)C(=O)O)NC(CC(F)C(=O)O)C(=O)O; X1 = O=C(C1CCC(CN[*:1])CC1)[*:2]; ξK = NCCCCC(N)C(=O)O
This section presents compounds with their documented Biodistribution: LNCaP tumor values.
Report the figure in % ID/g without appending any unit label.

In the examples that follow, each entry is paired with its recorded Biodistribution: LNCaP tumor.
| COMPOUND | ASSAY READOUT | NUMBER |
| --- | --- | --- |
| O=C([O-])CN1CCN(CC(=O)[O-])CCN(CC(=O)NCCCCC(NC(=O)CNC(=O)CCCc2ccc([N+](=O)[O-])cc2)C(=O)NCC(=O)NCC2CCC(C(=O)NC(Cc3c4ccccc4cc4ccccc34)C(=O)NCCCCC(NC(=O)NC(CCCC(=O)O)C(=O)O)C(=O)O)CC2)CCN(CC(=O)[O-])CC1.[177Lu+3] (stereo not shown) [^177Lu-CCZ02017] ({Butanoyl(4-(4-NO2Ph))}-G[ξK](DOTA)G[X1][ξAla(9-anthryl)]-{ξLys(Nα-CO-ξAad)}) | Biodistribution: LNCaP tumor | 89.90 |
| COc1ccc(CCCC(=O)NCC(=O)NC(CCCCNC(=O)CN2CCN(CC(=O)[O-])CCN(CC(=O)[O-])CCN(CC(=O)[O-])CC2)C(=O)NCC2CCC(C(=O)NC(Cc3c4ccccc4cc4ccccc34)C(=O)NCCCCC(NC(=O)NC(CCCC(=O)O)C(=O)O)C(=O)O)CC2)cc1.[177Lu+3] (stereo not shown) [^177Lu-HTK03170, reference compound] | Biodistribution: LNCaP tumor | 42.96 |
| COc1ccc(CCCC(=O)NCC(=O)NC(CCCCNC(=O)CN2CCN(CC(=O)[O-])CCN(CC(=O)[O-])CCN(CC(=O)[O-])CC2)CC(=O)NCC2CCC(C(=O)NC(Cc3c4ccccc4cc4ccccc34)C(=O)NCCCCC(NC(=O)NC(CC(F)C(=O)O)C(=O)O)C(=O)O)CC2)cc1.[177Lu+3] (stereo not shown) [^177Lu-CCZ02019] | Biodistribution: LNCaP tumor | 55.39 |

Return value of Biodistribution: LNCaP tumor for input COc1ccc(CCCC(=O)NCC(=O)NC(CCCCNC(=O)CN2CCN(CC(=O)[O-])CCN(CC(=O)[O-])CCN(CC(=O)[O-])CC2)C(=O)NCC(=O)NCC2CCC(C(=O)NC(Cc3c4ccccc4cc4ccccc34)C(=O)NCCCCC(NC(=O)NC(CC(F)C(=O)O)C(=O)O)C(=O)O)CC2)cc1.[177Lu+3] (stereo not shown) [^177Lu-CCZ02008] ({Butanoyl(4-(4-MeO-phenyl))}-G[ξK](DOTA)G[X1][ξAla(9-anthryl)]-X2) , no commentary. 38.57

* * *

System: NRG-mice bearing LNCaP tumors
EXPERIMENTAL DETAILS: Biodistribution (and PET/SPECT imaging) in NRG-mice bearing LNCaP tumors
Type: in vivo
EXPERIMENTAL PARAMETERS: 3 h p.i., Avg
*1 amine or outer side, *2 acyl side, *3 side chain or, on linkers, in order; H or OH if unused. Where a SMILES comes first, the peptide text is derived from it. [ ]: non-standard residue; d: D form. The star is where a group is joined. ξ: configuration not given here. ξLys(Nα-CO-ξAad) = O=C(O)CCCC(NC(=O)NC(CCCCN*)C(=O)O)C(=O)O; Butanoyl(4-(4-NO2Ph)) = O=C(CCCc1ccc([N+](=O)[O-])cc1)*; DOTA = O=C(O)CN1CCN(CC(=O)O)CCN(CC(=O)*)CCN(CC(=O)O)CC1; Butanoyl(4-(4-MeO-phenyl)) = COc1ccc(CCCC(=O)*)cc1; ξAla(9-anthryl) = NC(Cc1c2ccccc2cc2ccccc12)C(=O)O; X2 = O=C(NC(CCCCN*)C(=O)O)NC(CC(F)C(=O)O)C(=O)O; X1 = O=C(C1CCC(CN[*:1])CC1)[*:2]; ξK = NCCCCC(N)C(=O)O
This section presents molecules with their documented Biodistribution: LNCaP tumor values.
Report the figure in % ID/g without appending any unit label.

| MOLECULE | UNITS TEXT | NUMBER |
| --- | --- | --- |
| COc1ccc(CCCC(=O)NCC(=O)NC(CCCCNC(=O)CN2CCN(CC(=O)[O-])CCN(CC(=O)[O-])CCN(CC(=O)[O-])CC2)CC(=O)NCC2CCC(C(=O)NC(Cc3c4ccccc4cc4ccccc34)C(=O)NCCCCC(NC(=O)NC(CCCC(=O)O)C(=O)O)C(=O)O)CC2)cc1.[68Ga+3] (stereo not drawn) [^68Ga-CCZ02015] | % ID/g | 22.60 |
| COc1ccc(CCCC(=O)NCC(=O)NC(CCCCNC(=O)CN2CCN(CC(=O)[O-])CCN(CC(=O)[O-])CCN(CC(=O)[O-])CC2)CC(=O)NCC2CCC(C(=O)NC(Cc3c4ccccc4cc4ccccc34)C(=O)NCCCCC(NC(=O)NC(CC(F)C(=O)O)C(=O)O)C(=O)O)CC2)cc1.[177Lu+3] (stereo not drawn) [^177Lu-CCZ02019] | % ID/g | 50.23 |
| COc1ccc(CCCC(=O)NCC(=O)NC(CCCCNC(=O)CN2CCN(CC(=O)[O-])CCN(CC(=O)[O-])CCN(CC(=O)[O-])CC2)C(=O)NCC(=O)NCC2CCC(C(=O)NC(Cc3c4ccccc4cc4ccccc34)C(=O)NCCCCC(NC(=O)NC(CCCC(=O)O)C(=O)O)C(=O)O)CC2)cc1.[68Ga+3] (stereo not drawn) [^68Ga-CCZ02009] ({Butanoyl(4-(4-MeO-phenyl))}-G[ξK](DOTA)G[X1][ξAla(9-anthryl)]-{ξLys(Nα-CO-ξAad)}) | % ID/g | 17.69 |
| O=C([O-])CN1CCN(CC(=O)[O-])CCN(CC(=O)NCCCCC(NC(=O)CNC(=O)CCCc2ccc([N+](=O)[O-])cc2)C(=O)NCC(=O)NCC2CCC(C(=O)NC(Cc3c4ccccc4cc4ccccc34)C(=O)NCCCCC(NC(=O)NC(CC(F)C(=O)O)C(=O)O)C(=O)O)CC2)CCN(CC(=O)[O-])CC1.[68Ga+3] (stereo not drawn) [^68Ga-CCZ02025] ({Butanoyl(4-(4-NO2Ph))}-G[ξK](DOTA)G[X1][ξAla(9-anthryl)]-X2) | % ID/g | 18.79 |
| O=C([O-])CN1CCN(CC(=O)[O-])CCN(CC(=O)NCCCCC(NC(=O)CNC(=O)CCCc2ccc([N+](=O)[O-])cc2)C(=O)NCC(=O)NCC2CCC(C(=O)NC(Cc3c4ccccc4cc4ccccc34)C(=O)NCCCCC(NC(=O)NC(CCCC(=O)O)C(=O)O)C(=O)O)CC2)CCN(CC(=O)[O-])CC1.[225Ac+3] (stereo not drawn) [^225Ac-CCZ02017] ({Butanoyl(4-(4-NO2Ph))}-G[ξK](DOTA)G[X1][ξAla(9-anthryl)]-{ξLys(Nα-CO-ξAad)}) | % ID/g | 23.63 |

Return value of Biodistribution: LNCaP tumor for input O=C([O-])CN1CCN(CC(=O)[O-])CCN(CC(=O)NCCCCC(NC(=O)CNC(=O)CCCc2ccc([N+](=O)[O-])cc2)C(=O)NCC(=O)NCC2CCC(C(=O)NC(Cc3c4ccccc4cc4ccccc34)C(=O)NCCCCC(NC(=O)NC(CCCC(=O)O)C(=O)O)C(=O)O)CC2)CCN(CC(=O)[O-])CC1.[177Lu+3] (stereo not drawn) [^177Lu-CCZ02017] ({Butanoyl(4-(4-NO2Ph))}-G[ξK](DOTA)G[X1][ξAla(9-anthryl)]-{ξLys(Nα-CO-ξAad)}) , no commentary. 39.27

* * *

System: NRG-mice bearing LNCaP tumors
EXPERIMENTAL DETAILS: Biodistribution (and PET/SPECT imaging) in NRG-mice bearing LNCaP tumors
Assay type: in vivo
EXPERIMENTAL PARAMETERS: 3 h p.i., Avg
ASSAY READOUT: Biodistribution: Salivary gland (% ID/g)
Report the figure in % ID/g without appending any unit label.

Return value of Biodistribution: Salivary gland for input COc1ccc(CCCC(=O)NCC(=O)NC(CCCCNC(=O)CN2CCN(CC(=O)[O-])CCN(CC(=O)[O-])CCN(CC(=O)[O-])CC2)CC(=O)NCC2CCC(C(=O)NC(Cc3c4ccccc4cc4ccccc34)C(=O)NCCCCC(NC(=O)NC(CC(F)C(=O)O)C(=O)O)C(=O)O)CC2)cc1.[177Lu+3] (stereo not shown) [^177Lu-CCZ02019] , no commentary. 1.92
